Source: PubChem BioAssay (Tox21)

# assay_overview: qHTS RealTime-Glo MT Cell Viability Assay in HepG2 cells - 16 hour (AID 1224885); further: nearly all actives have a fitted effect of over 50% in size
# condition_summary: RealTime-Glo luminescence; series mostly up to 76.8 µM
Inconclusive results are not listed. Calls of active or inactive are those of the source. The call rests on the fitted dose curve; in most records, active means well fitted cell-killing curve with a large enough effect in the repeat runs; inconclusive means weak or mixed curves; inactive means flat fitted curve, though single readings scatter.
Write down one outcome, taken from active, inactive

Some entries whose results are on file:
Hi team, can someone confirm the assay call for `CC(C)Nc1nc(Cl)nc(NC(C)C)n1` ? inactive

Call for entry O=C1Nc2ccc(Cl)cc2C(c2ccccc2)=NC1O (centres undefined) : inactive

Record request — test call for CC1CC(=O)O1 (centres undefined) inactive

Per the records of this test, what outcome belongs to `CC(C)(c1ccccc1)c1ccc(O)cc1` ? inactive

Which result was noted for this compound in the test: `Clc1cccc(Cl)c1` inactive

What classification did `Cc1ccc(N=CN(C)C=Nc2ccc(C)cc2C)c(C)c1` end up with in this test? inactive

Tell me the recorded outcome of this test for `C[C@]12CCC(=O)C=C1CC[C@@H]1[C@@H]2CC[C@@]2(C)[C@H]1CC[C@]2(C)O` . inactive

Fill in: this test's call for `Cl` is ___ inactive

Next:
Status in this test for `C[N+](C)(C)C` ? inactive

I'd appreciate the recorded outcome for `O=C1CCCO1` from this test. inactive

Recorded test outcome, item CC(C)=CC1C(C(=O)OCN2C(=O)C3=C(CCCC3)C2=O)C1(C)C (centres undefined) inactive

What call does the record list for `O=[N+]([O-])c1ccc(Nc2ccccc2)cc1` ? inactive

Hey, what did the test say about `C=C(C)C#N` ? inactive
